Test system: NCI-H1437
protocol text: relative viability (nuclei count vs DMSO), 5 days (fraction); higher = more cells survive
test parameters: first compound 0.8 µM
The entries below are paired with their reported relative viability.

{"compound": "Oc1nc(-c2ccc(C(F)(F)F)cc2)nc2c1CSCC2 [XAV939] + COc1cc2c(Oc3ccc(NC(=O)C4(C(=O)Nc5ccc(F)cc5)CC4)cc3F)ccnc2cc1OCCCN1CCOCC1 [Foretinib] (partner 0.25 µM)", "relative viability": 1.21}
{"compound": "Oc1nc(-c2ccc(C(F)(F)F)cc2)nc2c1CSCC2 [XAV939] + CC(C)C[C@H](NC(=O)[C@H](Cc1ccccc1)NC(=O)c1cnccn1)B(O)O [Bortezomib] (partner 0.002 µM)", "relative viability": 0.512}
{"compound": "C=C1C(=O)O[C@@H](CCCCCCCC)[C@@H]1C(=O)O [C-75] + CC(=O)c1c(C)c2cnc(Nc3ccc(N4CCNCC4)cn3)nc2n(C2CCCC2)c1=O [Palbociclib] (partner 0.5 µM)", "relative viability": 0.299}

---

Test system: UMC-11
protocol text: relative viability (nuclei count vs DMSO), 5 days (fraction); higher = more cells survive
test parameters: first compound 0.8 µM
So basically: is relative viability under 0.7? Then true. Not under? Then false.

{"compound": "Oc1nc(-c2ccc(C(F)(F)F)cc2)nc2c1CSCC2 [XAV939] + CC(=O)c1c(C)c2cnc(Nc3ccc(N4CCNCC4)cn3)nc2n(C2CCCC2)c1=O [Palbociclib] (partner 0.5 µM)", "discrete label": "true"}
{"compound": "Oc1nc(-c2ccc(C(F)(F)F)cc2)nc2c1CSCC2 [XAV939] + Nc1nc2[nH]cc(CCc3ccc(C(=O)N[C@@H](CCC(=O)O)C(=O)O)cc3)c2c(=O)[nH]1 [Pemetrexed] (partner 0.2 µM)", "discrete label": "false"}
{"compound": "Oc1nc(-c2ccc(C(F)(F)F)cc2)nc2c1CSCC2 [XAV939] + CC1(C)CCC(c2ccc(Cl)cc2)=C(CN2CCN(c3ccc(C(=O)NS(=O)(=O)c4ccc(N[C@H](CCN5CCOCC5)CSc5ccccc5)c(S(=O)(=O)C(F)(F)F)c4)cc3)CC2)C1 [Navitoclax] (partner 0.5 µM)", "discrete label": "true"}
{"compound": "Oc1nc(-c2ccc(C(F)(F)F)cc2)nc2c1CSCC2 [XAV939] + COc1cc2c(Oc3ccc(NC(=O)C4(C(=O)Nc5ccc(F)cc5)CC4)cc3F)ccnc2cc1OCCCN1CCOCC1 [Foretinib] (partner 0.25 µM)", "discrete label": "false"}
{"compound": "C=C1C(=O)O[C@@H](CCCCCCCC)[C@@H]1C(=O)O [C-75] + C[C@@H](Oc1cc(-c2cnn(C3CCNCC3)c2)cnc1N)c1c(Cl)ccc(F)c1Cl [Crizotinib] (partner 1 µM)", "discrete label": "true"}
{"compound": "C=C1C(=O)O[C@@H](CCCCCCCC)[C@@H]1C(=O)O [C-75] + Cc1cc(Nc2cc(N3CCN(C)CC3)nc(Sc3ccc(NC(=O)C4CC4)cc3)n2)n[nH]1 [Tozasertib] (partner 0.1 µM)", "discrete label": "true"}
{"compound": "Oc1nc(-c2ccc(C(F)(F)F)cc2)nc2c1CSCC2 [XAV939] + CC(=O)Nc1cccc(-n2c(=O)n(C3CC3)c(=O)c3c(Nc4ccc(I)cc4F)n(C)c(=O)c(C)c32)c1 [Trametinib] (partner 0.02 µM)", "discrete label": "false"}
{"compound": "C=C1C(=O)O[C@@H](CCCCCCCC)[C@@H]1C(=O)O [C-75] + CCNC(=O)c1noc(-c2cc(C(C)C)c(O)cc2O)c1-c1ccc(CN2CCOCC2)cc1 [Luminespib] (partner 0.01 µM)", "discrete label": "false"}
{"compound": "Oc1nc(-c2ccc(C(F)(F)F)cc2)nc2c1CSCC2 [XAV939] + CCNC(=O)c1noc(-c2cc(C(C)C)c(O)cc2O)c1-c1ccc(CN2CCOCC2)cc1 [Luminespib] (partner 0.01 µM)", "discrete label": "false"}

---

Each entry below lists one item and its recorded relative viability value.
System: 201T
protocol text: relative viability (nuclei count vs DMSO), 5 days (fraction); higher = more cells survive
test parameters: first compound 2.53 µM

{"compound": "C=C1C(=O)O[C@@H](CCCCCCCC)[C@@H]1C(=O)O [C-75] + Cc1nc(Nc2ncc(C(=O)Nc3c(C)cccc3Cl)s2)cc(N2CCN(CCO)CC2)n1 [Dasatinib] (partner 0.075 µM)", "relative viability": 0.511}
{"compound": "Oc1nc(-c2ccc(C(F)(F)F)cc2)nc2c1CSCC2 [XAV939] + CC(=O)Nc1cccc(-n2c(=O)n(C3CC3)c(=O)c3c(Nc4ccc(I)cc4F)n(C)c(=O)c(C)c32)c1 [Trametinib] (partner 0.02 µM)", "relative viability": 0.569}
{"compound": "C=C1C(=O)O[C@@H](CCCCCCCC)[C@@H]1C(=O)O [C-75] + NC(=O)Nc1cc(-c2cccc(F)c2)sc1C(=O)N[C@H]1CCCNC1 [AZD7762] (partner 0.2 µM)", "relative viability": 0.507}
{"compound": "C=C1C(=O)O[C@@H](CCCCCCCC)[C@@H]1C(=O)O [C-75] + N=C(N)NC(=N)NCCc1ccccc1 [Phenformin] (partner 250 µM)", "relative viability": 0.43}
{"compound": "Oc1nc(-c2ccc(C(F)(F)F)cc2)nc2c1CSCC2 [XAV939] + COc1cccc2cc(-c3nc([C@H]4CC[C@H](C(=O)O)CC4)n4ncnc(N)c34)[nH]c12 [OSI-027] (partner 0.5 µM)", "relative viability": 0.622}

---

System: HCC-78
protocol text: relative viability (nuclei count vs DMSO), 5 days (fraction); higher = more cells survive
test parameters: first compound 0.1 µM
Entries annotated with measured relative viability

{"compound": "NC(=O)Nc1cc(-c2cccc(F)c2)sc1C(=O)N[C@H]1CCCNC1 [AZD7762] + Cc1nc(NC(=O)N2CCC[C@H]2C(N)=O)sc1-c1ccnc(C(C)(C)C(F)(F)F)c1 [Alpelisib] (partner 2 µM)", "relative viability": 0.361}
{"compound": "NC(=O)Nc1cc(-c2cccc(F)c2)sc1C(=O)N[C@H]1CCCNC1 [AZD7762] + CC(C)C[C@H](NC(=O)[C@H](Cc1ccccc1)NC(=O)c1cnccn1)B(O)O [Bortezomib] (partner 0.002 µM)", "relative viability": 0.526}
{"compound": "NC(=O)Nc1cc(-c2cccc(F)c2)sc1C(=O)N[C@H]1CCCNC1 [AZD7762] + CC(=O)Nc1cccc(-n2c(=O)n(C3CC3)c(=O)c3c(Nc4ccc(I)cc4F)n(C)c(=O)c(C)c32)c1 [Trametinib] (partner 0.02 µM)", "relative viability": 0.828}

---

System: CAL-12T
protocol text: relative viability (nuclei count vs DMSO), 5 days (fraction); higher = more cells survive
test parameters: first compound 0.03162 µM
Each record is given label 1 if its reported relative viability is strictly below 0.6. Records at or above 0.6 are given label 0.

{"compound": "NC(=O)Nc1cc(-c2cccc(F)c2)sc1C(=O)N[C@H]1CCCNC1 [AZD7762] + CC1(C)CCC(c2ccc(Cl)cc2)=C(CN2CCN(c3ccc(C(=O)NS(=O)(=O)c4ccc(N[C@H](CCN5CCOCC5)CSc5ccccc5)c(S(=O)(=O)C(F)(F)F)c4)cc3)CC2)C1 [Navitoclax] (partner 0.5 µM)", "target or system": "CAL-12T", "discrete label": "label 0"}
{"compound": "NC(=O)Nc1cc(-c2cccc(F)c2)sc1C(=O)N[C@H]1CCCNC1 [AZD7762] + O=C(CCCCCCC(=O)Nc1ccccc1)NO [Vorinostat] (partner 1 µM)", "target or system": "CAL-12T", "discrete label": "label 0"}
{"compound": "NC(=O)Nc1cc(-c2cccc(F)c2)sc1C(=O)N[C@H]1CCCNC1 [AZD7762] + C[C@]1(O)C[C@@H](c2nc(-c3ccc4ccc(-c5ccccc5)nc4c3)c3c(N)nccn32)C1 [Linsitinib] (partner 1 µM)", "target or system": "CAL-12T", "discrete label": "label 0"}
{"compound": "NC(=O)Nc1cc(-c2cccc(F)c2)sc1C(=O)N[C@H]1CCCNC1 [AZD7762] + CC(=O)Nc1cccc(-n2c(=O)n(C3CC3)c(=O)c3c(Nc4ccc(I)cc4F)n(C)c(=O)c(C)c32)c1 [Trametinib] (partner 0.02 µM)", "target or system": "CAL-12T", "discrete label": "label 1"}
{"compound": "NC(=O)Nc1cc(-c2cccc(F)c2)sc1C(=O)N[C@H]1CCCNC1 [AZD7762] + CS(=O)(=O)N1CCN(Cc2cc3nc(-c4cccc5[nH]ncc45)nc(N4CCOCC4)c3s2)CC1 [Pictilisib] (partner 1 µM)", "target or system": "CAL-12T", "discrete label": "label 1"}
{"compound": "NC(=O)Nc1cc(-c2cccc(F)c2)sc1C(=O)N[C@H]1CCCNC1 [AZD7762] + CS(=O)(=O)CCNCc1ccc(-c2ccc3ncnc(Nc4ccc(OCc5cccc(F)c5)c(Cl)c4)c3c2)o1 [Lapatinib] (partner 2 µM)", "target or system": "CAL-12T", "discrete label": "label 0"}
